Assay: Pharmacokinetic analysis in mice, plasma and brain levels by LC-MS/MS
Assay type: in vivo
Conditions: C57BL/6, mouse, brain/plasma; male C57 BL/6 mice, 10 mg/kg oral (PO), 0.25-2 h; read-out: B/P ratio (Brain AUC(0-2h)/Plasma AUC(0-2h))

>  <Compound>
Cc1nnc2n(C)c(=O)c3c(Nc4ccccc4)n(Cc4ccc(-c5cccc(F)n5)cc4)nc3n12 [Example 2]

>  <Kp>
≤ 0.15

$$$$

Source of measurements: patent US9938284B2
